- System: Escherichia coli TOP10
- assay-explanation: shrunken log2 fold change of peptide-encoding DNA abundance (4.5 h post-induction vs induction); higher = less antimicrobial activity (less host growth inhibition)
- condition-details: time post-induction: 4.5 h; library: site-saturation at positions 5, 18, 19, 20
property-name: shrunken log2 fold change

Would you please look over these solved cases?
{"columns": ["residue-codes", "shrunken log2 fold change"],
 "data": [
  ["RRIRWRPPRLPRPRPRPIHDPRP", -0.118],
  ["RRIRIRPPRLPRPRPRPCFMPRP", -0.378],
  ["RRIRVRPPRLPRPRPRPQCTPRP", -0.149]
]}

## Input Would you mind telling me what shrunken log2 fold change value was observed for RRIRGRPPRLPRPRPRPENHPRP ?
## Output 0.455

----------
- System: Escherichia coli TOP10
- assay-explanation: shrunken log2 fold change of peptide-encoding DNA abundance (4.5 h post-induction vs induction); higher = less antimicrobial activity (less host growth inhibition)
- condition-details: time post-induction: 4.5 h; library: site-saturation at positions 5, 18, 19, 20
# Lookup of reported shrunken log2 fold change keyed by entry

# annotated cases, reported shrunken log2 fold change shown
{"columns": ["residue-codes", "shrunken log2 fold change"],
 "data": [
  ["RRIRTRPPRLPRPRPRPIWKPRP", 0.0742],
  ["RRIRSRPPRLPRPRPRPLHPPRP", 0.578]
]}

## Input Give its shrunken log2 fold change value. Item: RRIRNRPPRLPRPRPRPWCEPRP
## Output 0.034

----------
- System: Escherichia coli TOP10
- assay-explanation: shrunken log2 fold change of peptide-encoding DNA abundance (4.5 h post-induction vs induction); higher = less antimicrobial activity (less host growth inhibition)
- condition-details: time post-induction: 4.5 h; library: site-saturation at positions 5, 18, 19, 20
Returns one of 1 (yes) or 0 (no); 1 (yes) when shrunken log2 fold change is >= -0.01.

## Input Can RRIRTRPPRLPRPRPRPCVAPRP be said to have shrunken log2 fold change at or above -0.01?
## Output 1 (yes)

## Input Please give the result for RRIRRRPPRLPRPRPRPIYCPRP too.
## Output 0 (no)

## Input Also RRIRQRPPRLPRPRPRPDTKPRP , if possible.
## Output 1 (yes)

## Input Now consider RRIRYRPPRLPRPRPRPAIVPRP and answer again.
## Output 0 (no)

----------
- Tested on: Escherichia coli TOP10
- assay-explanation: shrunken log2 fold change of peptide-encoding DNA abundance (4.5 h post-induction vs induction); higher = less antimicrobial activity (less host growth inhibition)
- condition-details: time post-induction: 4.5 h; library: site-saturation at positions 5, 18, 19, 20
Reported shrunken log2 fold change values are given for each entry in this list.
Respond numerically, and do not add a unit to the figure.

Below, 5 sequences whose answers are already recorded.
{"columns": ["residue-codes", "experimental-result"],
 "data": [
  ["RRIRIRPPRLPRPRPRPMHEPRP", -0.0221],
  ["RRIRGRPPRLPRPRPRPLHHPRP", 0.452],
  ["RRIRQRPPRLPRPRPRPPQSPRP", 0.671],
  ["RRIRFRPPRLPRPRPRPPQFPRP", 0.0547],
  ["RRIRLRPPRLPRPRPRPSRSPRP", -0.0638]
]}

## Input Recorded shrunken log2 fold change for RRIRWRPPRLPRPRPRPRLQPRP , please?
## Output 0.642

## Input Query RRIRMRPPRLPRPRPRPSRGPRP next
## Output 0.732

## Input For RRIRFRPPRLPRPRPRPAYDPRP then?
## Output -0.293

## Input Now this one: RRIRPRPPRLPRPRPRPRQPPRP
## Output 0.113

## Input Again, but for RRIRCRPPRLPRPRPRPWMAPRP
## Output -0.333

## Input Then this sequence: RRIRLRPPRLPRPRPRPWCFPRP
## Output -0.158

## Input Now try RRIRWRPPRLPRPRPRPSTSPRP .
## Output -0.302

## Input Now the sequence RRIRDRPPRLPRPRPRPISGPRP
## Output 0.0039

## Input Would you mind doing RRIRGRPPRLPRPRPRPTHNPRP as well?
## Output 0.443

----------
- System: Escherichia coli TOP10
- assay-explanation: shrunken log2 fold change of peptide-encoding DNA abundance (4.5 h post-induction vs induction); higher = less antimicrobial activity (less host growth inhibition)
- condition-details: time post-induction: 4.5 h; library: site-saturation at positions 5, 18, 19, 20
Is shrunken log2 fold change at least 0.08? Then 1. If not, 0.

{"columns": ["residue-codes", "cat"],
 "data": [
  ["RRIRFRPPRLPRPRPRPAFGPRP", 1],
  ["RRIRFRPPRLPRPRPRPIIDPRP", 0],
  ["RRIRKRPPRLPRPRPRPFEQPRP", 0],
  ["RRIRWRPPRLPRPRPRPKGEPRP", 1],
  ["RRIRDRPPRLPRPRPRPNHFPRP", 0]
]}

## Input Exam item: decide whether the reported shrunken log2 fold change for RRIRIRPPRLPRPRPRPVNVPRP is at least 0.08.
## Output 0

## Input Check RRIRARPPRLPRPRPRPSYGPRP too.
## Output 0

## Input // same read-out, input: RRIRDRPPRLPRPRPRPHAIPRP
## Output 0

## Input What do you have for RRIRMRPPRLPRPRPRPAAKPRP ?
## Output 1

## Input Next record, please: RRIRNRPPRLPRPRPRPPGIPRP
## Output 0

## Input Also RRIRSRPPRLPRPRPRPTDSPRP ?
## Output 0

## Input RRIRDRPPRLPRPRPRPCVNPRP , same question.
## Output 0

## Input Try this sequence next: RRIRCRPPRLPRPRPRPERSPRP
## Output 1

## Input // next record RRIRARPPRLPRPRPRPNAIPRP
## Output 1

## Input Also need RRIRLRPPRLPRPRPRPFEFPRP , thanks.
## Output 0

## Input Further, for RRIRCRPPRLPRPRPRPGPMPRP ?
## Output 1

----------
- System: Escherichia coli TOP10
- assay-explanation: shrunken log2 fold change of peptide-encoding DNA abundance (4.5 h post-induction vs induction); higher = less antimicrobial activity (less host growth inhibition)
- condition-details: time post-induction: 4.5 h; library: site-saturation at positions 5, 18, 19, 20
The label depends only on shrunken log2 fold change: criterion met if it is at least 0.03, criterion not met if it is smaller.

## Input In plain terms: is recorded shrunken log2 fold change at least 0.03 for RRIRHRPPRLPRPRPRPNNPPRP ?
## Output criterion not met

## Input Again, but for RRIRMRPPRLPRPRPRPKRNPRP
## Output criterion met

## Input Now give it for RRIRERPPRLPRPRPRPMNVPRP too.
## Output criterion not met

----------
- System: Escherichia coli TOP10
- assay-explanation: shrunken log2 fold change of peptide-encoding DNA abundance (4.5 h post-induction vs induction); higher = less antimicrobial activity (less host growth inhibition)
- condition-details: time post-induction: 4.5 h; library: site-saturation at positions 5, 18, 19, 20
Note to self: class labels come from recorded shrunken log2 fold change, ranges listed here: range A: < -0.07; range B: ≥ -0.07 and < 0.07; range C: ≥ 0.07

## Input Dear colleague, I would appreciate it if you could identify the bin for RRIRNRPPRLPRPRPRPAVTPRP and reply at your convenience.
## Output range C

## Input Entry RRIRIRPPRLPRPRPRPIGQPRP please
## Output range B

## Input Field entry: RRIRPRPPRLPRPRPRPEWWPRP
## Output range B

## Input Entry to check: RRIRNRPPRLPRPRPRPNFDPRP
## Output range C

## Input Try this sequence too: RRIRGRPPRLPRPRPRPQLHPRP
## Output range C

----------
This listing pairs sequences with measured shrunken log2 fold change.
- Tested on: Escherichia coli TOP10;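 further: peptides expressed intracellularly from a pBAD plasmid library in pooled LB shake-flask culture, induced with 0.3% L-arabinose, DNA abundance read by NGS, three biological replicates, DESeq2 with apeglm shrinkage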
- assay-explanation: shrunken log2 fold change of peptide-encoding DNA abundance (4.5 h post-induction vs induction); higher = less antimicrobial activity (less host growth inhibition)
- condition-details: time post-induction: 4.5 h; library: site-saturation at positions 5, 18, 19, 20
Reply with the value as a number alone.

Before answering, review these 8 worked examples.
{"columns": ["residue-codes", "study-system", "experimental-result"],
 "data": [
  ["RRIRPRPPRLPRPRPRPINNPRP", "Escherichia coli TOP10", 0.81],
  ["RRIRYRPPRLPRPRPRPCFCPRP", "Escherichia coli TOP10", -0.565],
  ["RRIRTRPPRLPRPRPRPVECPRP", "Escherichia coli TOP10", 0.0216],
  ["RRIRYRPPRLPRPRPRPDWLPRP", "Escherichia coli TOP10", -0.0748],
  ["RRIRMRPPRLPRPRPRPNQLPRP", "Escherichia coli TOP10", 0.0894],
  ["RRIRQRPPRLPRPRPRPQMFPRP", "Escherichia coli TOP10", 0.00489],
  ["RRIRSRPPRLPRPRPRPHYAPRP", "Escherichia coli TOP10", -0.247],
  ["RRIRNRPPRLPRPRPRPYFAPRP", "Escherichia coli TOP10", -0.198]
]}

## Input What value of shrunken log2 fold change has been reported for the following sequence? RRIRGRPPRLPRPRPRPPCSPRP
## Output 0.238

## Input Consider next the sequence RRIRHRPPRLPRPRPRPCPRPRP in the same way.
## Output -0.28

## Input Another sequence to look at: RRIRTRPPRLPRPRPRPIAIPRP
## Output -0.0261

## Input Now the same for RRIRLRPPRLPRPRPRPFDSPRP
## Output -0.174

## Input Same read-out for RRIRNRPPRLPRPRPRPELNPRP ?
## Output -0.0809

## Input Try RRIRFRPPRLPRPRPRPTKEPRP next.
## Output -0.0335

## Input Next record, please: RRIRARPPRLPRPRPRPQTYPRP
## Output 0.00151
